Reference for the values: patent USRE48461E1

Tested on: AR mRNA
Assay: Dose-dependent antisense inhibition of human AR in HuVEC cells (electroporation, qRT-PCR RTS3559, IC50)
Format: cell-based
Settings: Table 36; 750.0 nM, HuVEC, electroporation, approximately 16 hours
Oligonucleotides are written 5' to 3', each unit as a sugar letter and its base; * is a phosphorothioate linkage, no mark a phosphodiester; rarer units and linkages stand in square brackets, end groups in braces. Plain capitals give the bases only. k = constrained ethyl (cEt); [5mC] = 5-methylcytosine; d = 2'-deoxy (DNA)
measured.parameter: percent inhibition of AR, 750.0 nM (%)
Report only the number, with the unit % understood.

Qu. Determine from records and report percent inhibition of AR, 750.0 nM for 584245 (kA*kG*kG*dT*dT*dA*dG*dG*dG*dA*dG*dT*dA*kG*kG*k[5mC]; antisense) [compound 584245]
Ans. 69

Qu. Determine from records and report percent inhibition of AR, 750.0 nM for 584361 (k[5mC]*kT*kT*d[5mC]*dA*dT*dT*dG*d[5mC]*dA*dG*dG*dT*k[5mC]*kT*kG; antisense) [compound 584361]
Ans. 71

Qu. Determine from records and report percent inhibition of AR, 750.0 nM for 584469 (kT*kT*kT*dG*dG*dT*dA*dA*d[5mC]*dA*dT*dT*dA*kG*kG*k[5mC]; antisense) [compound 584469]
Ans. 73

Qu. Determine from records and report percent inhibition of AR, 750.0 nM for 584233 (kG*kG*kA*dT*dT*d[5mC]*dT*d[5mC]*dT*dA*d[5mC]*dA*d[5mC]*kA*k[5mC]*kA; antisense) [compound 584233]
Ans. 66

Qu. Determine from records and report percent inhibition of AR, 750.0 nM for 584329 (kG*kG*kT*dT*dA*dT*dG*dG*dT*dT*d[5mC]*dT*dG*kT*k[5mC]*kT; antisense) [compound 584329]
Ans. 67
